System: OVCAR-3 ovarian
procedureText: NCI-60 one-dose screen, 48 h
settings: 10 µM unless noted
The panel holds about 83,000 compounds, 20% with a hit somewhere; the sample as a whole holds those more often. Active and inactive are the calls of the source. Rule for the calls: active = growth percent below 10; inactive = the rest. Where a SMILES comes first, the peptide text is derived from it. [ ]: non-standard residue; d: D form. ξ: configuration not given here. ξD = NC(CC(=O)O)C(=O)O
Outcomes: true (1) (active), false (0) (inactive)

compound: COc1c(C)c2c(c(O)c1C/C=C(\C)CCC(=O)O)C(=O)OC2
labelValue: false (0)
//
compound: CCOc1ccc(C(CN2CCOCC2)C(C)=O)cc1OC (stereo not given)
labelValue: false (0)
//
compound: Cc1nc(Sc2nc3ccc([N+](=O)[O-])cc3s2)sc1C
labelValue: true (1)
//
compound: CN1CCC(c2ccccc2)(c2ccccc2)C(=O)C1
labelValue: false (0)
//
compound: Cc1cc(C(N)=O)cc(C)c1C(=O)OCCCl
labelValue: false (0)
//
compound: CCCCCCCCCCCCSC(=N)N
labelValue: false (0)
//
compound: COc1cc(/C=C/C(=O)CC(=O)/C=C/c2ccc(O)c(OC)c2)ccc1O
labelValue: false (0)
//
compound: CN(C)c1ccc(/C=C/c2nccc3ccccc23)cc1
labelValue: false (0)
//
compound: O=C(c1ccccc1)N(CCCl)C(=O)N(CCCl)C(=O)c1ccccc1
labelValue: false (0)
//
compound: CC1(O)CCCCCC1
labelValue: false (0)
//
compound: CCOC(=O)c1cc(CC)sc1NC(=O)CC(C)=O
labelValue: false (0)
//
compound: CCOC(=O)/C(=C\c1ccc2ccccc2c1)P(=O)(OCC)OCC
labelValue: false (0)
//
compound: CCCCC(CCc1ccc([N+](=O)[O-])cc1)(C(C)=O)C(=O)OCC (stereo not given)
labelValue: false (0)
//
compound: CN(C)CCN(C)CC(C)(C)C(=O)/C=C/c1ccc(Cl)c(Cl)c1
labelValue: true (1)
//
compound: Nc1nc(-c2ccccc2)nc(N)c1N=O
labelValue: false (0)
//
compound: CC[n+]1ccc(Nc2ccc(NC(=O)c3ccc(Nc4cc[n+](CC)c5ccc([N+](=O)[O-])cc45)cc3)cc2)cc1
labelValue: false (0)
//
compound: O=C1C=CC(=O)N1c1ccccc1
labelValue: true (1)
//
compound: O=[N+]([O-])c1ccc([I+]c2ccccc2)cc1
labelValue: true (1)
//
compound: O=[N+]([O-])c1ccc(Oc2ccccc2Cl)c([N+](=O)[O-])c1
labelValue: false (0)
//
compound: N#Cc1c2ccccc2nc2ccccc12
labelValue: false (0)
//
compound: O=C1C(=O)c2cc([N+](=O)[O-])ccc2-c2ccccc21
labelValue: true (1)
//
compound: CCCCCCCCC(=O)OCCCC(CCC(CCC1CCCO1)OC(=O)CCCCCCCC)OC(=O)CCCCCCCC (stereo not given)
labelValue: false (0)
//
compound: c1ccc(-c2cccc(-c3ccccn3)n2)nc1
labelValue: false (0)
//
compound: O=C1/C(=C\c2ccc([N+](=O)[O-])cc2)CS(=O)(=O)C/C1=C/c1ccc([N+](=O)[O-])cc1
labelValue: true (1)
//
compound: O=C(CCl)N(c1ccccc1)c1ccccc1
labelValue: false (0)
//
compound: Cn1ccc(=Nc2ccc(NC(=O)c3ccc(N=c4ccn(C)c5ccc([N+](=O)[O-])cc45)cc3)cc2)cc1
labelValue: false (0)
//
compound: CCN(CC)CC(O)CNc1ccc(NCC2CO2)c2c1C(=O)c1ccccc1C2=O (stereo not given)
labelValue: true (1)
//
compound: CCCCCCCCCCCC1=NCCCN1CCCC
labelValue: false (0)
//
compound: CC1(C)OCC(COC(c2ccccc2)(c2ccccc2)c2ccccc2)O1 (stereo not given)
labelValue: false (0)
//
compound: O=C(CCl)N1c2ccccc2Sc2c1ccc1ccccc21
labelValue: false (0)
//
compound: COc1cc(/C=C/c2ccnc3ccccc23)cc(OC)c1OC
labelValue: false (0)
//
compound: Cc1ccc(/C=C2\CNC/C(=C\c3ccc(C)cc3)C2=O)cc1
labelValue: true (1)
//
compound: NCC(=O)NC(CC(=O)O)C(=O)O (stereo not given) (H-Gly-[ξD]-OH)
labelValue: false (0)
//
compound: CC(=O)c1ccc2c(c1)CCc1ccccc1-2
labelValue: false (0)
//
compound: CCC(C)C(N)C(=O)NC(CC(N)=O)C(=O)NC(CC(C)C)C(=O)NC(CCCCN)C(=O)NC(C)C(=O)NC(CC(C)C)C(=O)NC(C)C(=O)NC(C)C(=O)NC(CC(C)C)C(=O)NC(C)C(=O)NC(CCCCN)C(=O)NC(CCCCN)C(=O)NC(C(=O)NC(CC(C)C)C(N)=O)C(C)CC (stereo not given)
labelValue: false (0)
//
compound: O=C(c1ccc(O)c(Br)c1)c1ccc(O)c(Br)c1
labelValue: false (0)
//
compound: C[n+]1ccccc1C[n+]1ccccc1
labelValue: false (0)
//
compound: O=C1/C(=C/c2ccccn2)CCc2ccccc21
labelValue: false (0)
//
compound: CCCOC(=O)c1nc(N(CC2CCCCC2)C(=O)NC)sc1/N=C/c1ccccc1
labelValue: true (1)
//
compound: Oc1c(Cl)cc(Cl)cc1C=NCC1CCC(CN=Cc2cc(Cl)cc(Cl)c2O)CC1 (stereo not given)
labelValue: false (0)

---

Tested on: OVCAR-4 ovarian
procedureText: NCI-60 one-dose screen, 48 h (100 = growth as untreated, 0 = no growth, -100 = all killed)
settings: 10 µM unless noted
Compounds without any hit were thinned out: in the full panel of roughly 83,000, 20% have a hit.
metric: growth (%)

compound: O=C1C=CC(=O)N1C1CCCCCCCCCCC1
tgt: OVCAR-4 ovarian
metric: growth
quantitativeResult: 89.5
//
compound: O=C1C=C(Cl)C(=O)c2ccccc21
tgt: OVCAR-4 ovarian
metric: growth
quantitativeResult: 92.5
//
compound: NC(=S)N/N=C\c1nccc2c(N)cccc12
tgt: OVCAR-4 ovarian
metric: growth
quantitativeResult: 40.7
//
compound: O=C(c1ccccc1)C(Br)C(Br)c1ccccc1 (configuration not stated)
tgt: OVCAR-4 ovarian
metric: growth
quantitativeResult: 90.2
//
compound: CCCCOS(=O)(=O)c1ccccc1
tgt: OVCAR-4 ovarian
metric: growth
quantitativeResult: 104
//
compound: Oc1c(C(Nc2ccccc2)c2ccccc2)ccc2cccnc12 (configuration not stated)
tgt: OVCAR-4 ovarian
metric: growth
quantitativeResult: 33.2
//
compound: Clc1ccc(Cc2nc3ccccc3s2)cc1
tgt: OVCAR-4 ovarian
metric: growth
quantitativeResult: 91
//
compound: CC(C)Nc1ccc(Nc2ccc(NC(C)C)cc2)cc1
tgt: OVCAR-4 ovarian
metric: growth
quantitativeResult: 49.5
//
compound: CC12CCC(O)CC1=CCC1C2CCC2(C)C3=NN=CC3CC12 (configuration not stated)
tgt: OVCAR-4 ovarian
metric: growth
quantitativeResult: 107
//
compound: CN(C)c1ccc(/C=C/c2cc[n+](C)c(/C=C/c3ccc(N(C)C)cc3)c2)cc1
tgt: OVCAR-4 ovarian
metric: growth
quantitativeResult: 19.9
//
compound: CCCC[n+]1c(/C=C\c2c(OC)cc(OC)cc2OC)ccc2ccccc21
tgt: OVCAR-4 ovarian
metric: growth
quantitativeResult: 9.07
//
compound: CC(=O)c1ccc2c(c1)CCc1ccccc1-2
tgt: OVCAR-4 ovarian
metric: growth
quantitativeResult: 98.8

---

Below, each of the compounds is paired with its reported growth value.
Test system: NCI-H322M lung
procedureText: NCI-60 one-dose screen, 48 h (100 = growth as untreated, 0 = no growth, -100 = all killed)
settings: 10 µM unless noted
Compounds without any hit were thinned out: in the full panel of roughly 83,000, 20% have a hit.

compound: CC(=O)Nc1ccc(C(=O)CCl)cc1
tgt: NCI-H322M lung
growth / %: 95.5
//
compound: CN(C)c1ccc(C(C#N)(c2ccccc2)c2ccc(N(C)C)cc2)cc1
tgt: NCI-H322M lung
growth / %: 86.8
//
compound: CCCCCCCCCCCC[n+]1ccccc1 (tested in a mixture with another compound)
tgt: NCI-H322M lung
growth / %: 31.9
//
compound: CC12CCC(O)CC1=CCC1C2CCC2(C)C3=NN=CC3CC12 (centres undefined)
tgt: NCI-H322M lung
growth / %: 118

---

Below, each of the molecules is paired with its reported growth value.
Tested on: EKVX NSCLC
procedureText: NCI-60 one-dose screen, 48 h (100 = growth as untreated, 0 = no growth, -100 = all killed)
settings: 10 µM unless noted
Experimental: Growth inhibition of the EKVX human Non-Small Cell Lung tumor cell line is measured as a screen for anti-cancer activity. Cells are grown in 96 well plates and exposed to the test compound for 48 hours. Compounds are tested at a single concentration, which is 10^-5 M for most compounds. The reported endpoint is percent growth (GI% or GIPRCNT), where numbers from 0 - 100% represent growth inhibition, and numbers from -100% - 0 represent cell death. […]
Compounds without any hit were thinned out: in the full panel of roughly 83,000, 20% have a hit.
metric: growth (%)

smilesStr: CC/C(=C(/CC)c1ccc(O)cc1)c1ccc(O)cc1
tgt: EKVX NSCLC
metric: growth
quantitativeResult: 64.7
--
smilesStr: CCSc1nc2ccccc2o1
tgt: EKVX NSCLC
metric: growth
quantitativeResult: 104
--
smilesStr: CC(C)=C1C=C2CC[C@@H]3[C@](C)(CCC[C@@]3(C)C(=O)O)[C@H]2CC1
tgt: EKVX NSCLC
metric: growth
quantitativeResult: 93.4
--
smilesStr: Fc1ccc(NCCS)cc1
tgt: EKVX NSCLC
metric: growth
quantitativeResult: 101

Where do these numbers come from? They come from PubChem BioAssay (NCI).
